Tested on: Haemophilus influenzae
Experiment: Antimicrobial activity against drug-susceptible Haemophilus influenzae 2 after 20 hrs by agar dilution method
Assay type: functional
Conditions: Haemophilus influenzae, 20 h; read-out: MIC
Item-by-item account of MIC
quantity.kind: MIC (µg/mL)

# compound, tgt, quantity.kind, unit.spec, reading
rows = [
    ("CCOC(=O)[C@H]1[C@H](C)O[C@@H](O[C@H]2[C@H](N(C)C)[C@@H](O)[C@H](O[C@H]3[C@@H](CC=O)C[C@@H](C)[C@@H](O)CN(CCCCc4ccccc4)CCC(C)NC(=O)C[C@@H](OC(=O)CC)[C@@H]3OC)O[C@@H]2C)C[C@@]1(C)OC(C)=O (stereo in doubt; form 1)", "Haemophilus influenzae", "MIC", "µg/mL", 1),
    ("CCOC(=O)[C@H]1[C@H](C)O[C@@H](O[C@H]2[C@H](N(C)C)[C@@H](O)[C@H](O[C@H]3[C@@H](CC=O)C[C@@H](C)[C@@H](O)CN(C)CCC[C@H](CCCc4ccnc5ccccc45)OC(=O)C[C@@H](OC(=O)CC)[C@@H]3OC)O[C@@H]2C)C[C@@]1(C)O", "Haemophilus influenzae", "MIC", "µg/mL", 4),
    ("CCOC(=O)[C@H]1[C@H](C)O[C@@H](O[C@H]2[C@H](N(C)C)[C@@H](O)[C@H](O[C@H]3[C@@H](CC=O)C[C@@H](C)[C@@H](O)CN(C)CCC[C@H](C/C=C/c4cccnc4)OC(=O)C[C@@H](OC(=O)CC)[C@@H]3OC)O[C@@H]2C)C[C@@]1(C)O", "Haemophilus influenzae", "MIC", "µg/mL", 2),
    ("CCOC(=O)[C@H]1[C@H](C)O[C@@H](O[C@H]2[C@H](N(C)C)[C@@H](O)[C@H](O[C@H]3[C@@H](CC=O)C[C@@H](C)[C@@H](O)CN(CCCCc4ccccc4)CCC[C@@H](C)OC(=O)C[C@@H](OC(=O)CC)[C@@H]3OC)O[C@@H]2C)C[C@@]1(C)OC(C)=O", "Haemophilus influenzae", "MIC", "µg/mL", 0.5),
    ("CCOC(=O)[C@H]1[C@H](C)O[C@@H](O[C@H]2[C@H](N(C)C)[C@@H](O)[C@H](O[C@H]3[C@@H](CC=O)C[C@@H](C)[C@@H](O)CN(C)CCC(CCCc4ccnc5ccccc45)NC(=O)C[C@@H](OC(=O)CC)[C@@H]3OC)O[C@@H]2C)C[C@@]1(C)O (stereo in doubt; form 1)", "Haemophilus influenzae", "MIC", "µg/mL", 2),
    ("CCOC(=O)[C@H]1[C@H](C)O[C@@H](O[C@H]2[C@H](N(C)C)[C@@H](O)[C@H](O[C@H]3[C@@H](CC=O)C[C@@H](C)[C@@H](O)CN(C)CCC[C@H](C/C=C/c4ccccc4)OC(=O)C[C@@H](OC(=O)CC)[C@@H]3OC)O[C@@H]2C)C[C@@]1(C)O", "Haemophilus influenzae", "MIC", "µg/mL", 8),
    ("CCOC(=O)[C@H]1[C@H](C)O[C@@H](O[C@H]2[C@H](N(C)C)[C@@H](O)[C@H](O[C@H]3[C@@H](CC=O)C[C@@H](C)[C@@H](OC(C)=O)CN(CCCCc4ccccc4)CCNC(=O)C[C@@H](OC(=O)CC)[C@@H]3OC)O[C@@H]2C)C[C@@]1(C)OC(C)=O", "Haemophilus influenzae", "MIC", "µg/mL", 2),
]
